These entries and their values trace back to patent US9938261B2.

measured_target: kinase panel containing either 386 or 392 distinct kinases
test_details: Kinase selectivity score S10 from competition binding panel
run_conditions: compounds at 10 μM; 386 or 392 distinct kinases

record_smiles: O[C@@H]1Cc2ccccc2[C@H]1Nc1nc2ccc(Cn3cnc4cccnc43)cc2o1
measured_target: kinase panel containing either 386 or 392 distinct kinases
Kinase specificity S(10): C (C>0.02)

record_smiles: OC1(CNc2nc3ccc(Cn4cnc5cccnc54)cc3s2)CCCCC1
measured_target: kinase panel containing either 386 or 392 distinct kinases
Kinase specificity S(10): C (C>0.02)

###

measured_target: PDGFRβ (Homo sapiens)
Construct: made in house
Sequence (P09619 33-1106): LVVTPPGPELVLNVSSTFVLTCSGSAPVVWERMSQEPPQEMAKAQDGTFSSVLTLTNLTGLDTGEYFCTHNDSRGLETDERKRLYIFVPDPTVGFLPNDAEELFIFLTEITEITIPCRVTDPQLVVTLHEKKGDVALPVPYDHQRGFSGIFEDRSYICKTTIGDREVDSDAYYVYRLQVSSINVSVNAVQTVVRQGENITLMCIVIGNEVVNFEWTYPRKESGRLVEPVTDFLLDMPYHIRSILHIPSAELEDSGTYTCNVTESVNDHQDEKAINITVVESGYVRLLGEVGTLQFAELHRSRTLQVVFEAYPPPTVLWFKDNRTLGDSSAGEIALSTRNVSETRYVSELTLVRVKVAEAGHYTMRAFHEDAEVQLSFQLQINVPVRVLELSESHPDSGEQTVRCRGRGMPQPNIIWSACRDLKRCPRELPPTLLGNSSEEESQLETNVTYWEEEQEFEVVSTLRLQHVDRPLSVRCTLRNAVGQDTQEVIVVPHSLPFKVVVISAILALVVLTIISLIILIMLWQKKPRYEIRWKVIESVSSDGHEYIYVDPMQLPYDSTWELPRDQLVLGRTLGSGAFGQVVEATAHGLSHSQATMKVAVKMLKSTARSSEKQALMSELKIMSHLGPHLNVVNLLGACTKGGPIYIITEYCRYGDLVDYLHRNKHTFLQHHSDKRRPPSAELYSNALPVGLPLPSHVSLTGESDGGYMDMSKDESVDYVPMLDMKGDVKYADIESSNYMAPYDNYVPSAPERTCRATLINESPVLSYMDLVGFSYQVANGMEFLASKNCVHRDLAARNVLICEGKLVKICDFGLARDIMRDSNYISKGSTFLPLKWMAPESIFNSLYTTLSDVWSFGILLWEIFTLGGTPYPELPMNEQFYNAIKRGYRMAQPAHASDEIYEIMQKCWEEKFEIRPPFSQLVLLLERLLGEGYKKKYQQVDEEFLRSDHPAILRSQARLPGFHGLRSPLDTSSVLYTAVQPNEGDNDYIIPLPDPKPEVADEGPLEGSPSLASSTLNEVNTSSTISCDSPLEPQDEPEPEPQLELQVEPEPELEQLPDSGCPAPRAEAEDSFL
test_details: Competition binding assay, PDGFRβ Kd
experimental_readout: Kd

Need Kd of Nc1nc2cccnc2n1Cc1ccc2nc(N[C@@H]3CCCC[C@H]3O)sc2c1 , thanks. > 2000 nM

Given the compound O[C@@H]1CCCC[C@H]1Nc1nc2ccc(Cn3cnc4cc(Br)cnc43)cc2s1 , what is its reported Kd? 50 to 500 nM

Given the compound OC[C@@H](Nc1nc2ccc(Cn3cnc4cccnc43)cc2s1)C1CCCCC1 , what is its reported Kd? ≤ 50 nM

Recorded Kd of ON=C1CCCC[C@H]1Nc1nc2ccc(Cn3cnc4cccnc43)cc2s1 , please. ≤ 50 nM

// Kd lookup, key: O[C@@H]1Cc2ccccc2[C@H]1Nc1nc2ccc(Cn3cnc4cc(Br)cnc43)cc2o1 ≤ 50 nM

Which Kd is listed for CCc1cnc2c(c1)ncn2Cc1ccc2nc(N[C@@H]3CCCC[C@H]3O)sc2c1 ? ≤ 50 nM

Item COc1cc2ncn(Cc3ccc4nc(NCC5CCCCC5)oc4c3)c2cc1OC has what recorded Kd? ≤ 50 nM

Look up Kd for this compound: O[C@H]1CCCC[C@H]1Nc1nc2ccc(Cn3cnc4ccccc43)cc2s1 (racemic) 50 to 500 nM

Fill in the blank: the reported Kd of CNC(=O)c1cn(Cc2ccc3nc(N[C@@H]4CCCC[C@H]4O)sc3c2)cn1 is ____. > 2000 nM

Which Kd is reported for this compound? COc1ccc2c(c1)ncn2Cc1ccc2nc(N[C@@H]3CCCC[C@H]3O)sc2c1 50 to 500 nM

Recorded Kd for O[C@@H]1CCCC[C@H]1Nc1nc2ccc(Cn3cnc4ccncc43)cc2s1 , please? 500 to 2000 nM

I have this compound here, Cn1cc(-c2cn(Cc3ccc4nc(N[C@@H]5CCCC[C@H]5O)sc4c3)cn2)cn1 , and I need its recorded Kd. > 2000 nM

What does the data say about its Kd? Entry: COc1cc2c(cc1Br)ncn2Cc1ccc2nc(N[C@@H]3CCCC[C@H]3O)sc2c1 500 to 2000 nM

Which measured Kd value corresponds to COc1cc2ncn(Cc3ccc4nc(NC5CCOC5)sc4c3)c2cc1OC (racemic) ? > 2000 nM

Value lookup for Kd; key = COc1cc2ncn(Cc3ccc4nc(N[C@@H]5CCCC5O)sc4c3)c2cc1OC (stereo in doubt) > 2000 nM

Returns the measured Kd for the input compound. Input: COc1cc2c(cc1Br)ncn2Cc1ccc2nc(N[C@@H]3c4ccccc4C[C@H]3O)sc2c1 500 to 2000 nM

Form field: reported Kd of CN(C)C(=O)c1cnc2c(c1)ncn2Cc1ccc2nc(N[C@@H]3CCCC[C@H]3O)sc2c1 ≤ 50 nM

I'd like to know its Kd. The compound in question is N#Cc1cnc2c(c1)ncn2Cc1ccc2nc(N[C@@H]3CCCC[C@H]3O)sc2c1 50 to 500 nM

Fill in the blank: the reported Kd of O[C@H]1CCCCC1Nc1nc2ccc(Cn3cnc4ccccc43)cc2s1 (stereo in doubt) is ____. ≤ 50 nM

Given O[C@@H]1CCCC[C@H]1Nc1nc2ccc(Cn3cnc4cc(N5CCOCC5)cnc43)cc2s1 , state its recorded Kd. ≤ 50 nM

Would you kindly share the measured Kd for COc1cc2ncn(Cc3ccc4nc(N[C@@H](C)C5CCCCC5)sc4c3)c2cc1OC ? ≤ 50 nM

For the compound CC(=O)Nc1cn(Cc2ccc3nc(N[C@@H]4CCCC[C@H]4O)sc3c2)cn1 , what Kd is on record? 50 to 500 nM

Give its Kd value. Item: NCc1cnc2c(c1)ncn2Cc1ccc2nc(N[C@@H]3CCCC[C@H]3O)sc2c1 50 to 500 nM

Fill in the blank: the reported Kd of O[C@@H]1CCCC[C@H]1Nc1nc2ccc(Cn3cnc4ncccc43)cc2s1 is ____. > 2000 nM

Recorded Kd for O[C@@H]1Cc2ccccc2[C@H]1Nc1nc2ccc(Cn3cnc4cc(F)cnc43)cc2s1 , please? ≤ 50 nM

Can you look up the measured Kd of COc1cc2c(cc1C#N)ncn2Cc1ccc2nc(N[C@@H]3CCCC[C@H]3O)sc2c1 for me? > 2000 nM

Param item = COc1cc2c(cc1-c1cnn(C)c1)ncn2Cc1ccc2nc(N[C@@H]3CCCC[C@H]3O)sc2c1 ; retrieve measured Kd. ≤ 50 nM

Item under review: O=C(O)c1cnc2c(c1)ncn2Cc1ccc2nc(N[C@@H]3CCCC[C@H]3O)sc2c1 . Reported Kd? 50 to 500 nM

I would be grateful if you could share the reported Kd for O=C1CCCC[C@H]1Nc1nc2ccc(Cn3cnc4cccnc43)cc2s1 . 50 to 500 nM

Fill blank: measured Kd of the compound COc1cc2ncn(Cc3ccc4nc(NC5CCCCC5)sc4c3)c2cc1OC is ____. ≤ 50 nM

Need Kd of COC(c1ccc2nc(N[C@@H]3CCCC[C@H]3O)sc2c1)c1c[nH]c2ncccc12 (stereo partly drawn) , thanks. > 2000 nM

Item O[C@@H]1CCCC[C@H]1Nc1nc2ccc(Cn3cnc4cc(CN5CCOCC5)cnc43)cc2s1 has what recorded Kd? 50 to 500 nM

Field request: Kd | item: O[C@@H]1CCCC[C@H]1Nc1nc2ccc(Cn3cnc4ccccc43)cc2s1 50 to 500 nM
